// provenance: ChEMBL document CHEMBL6096672

assay: Inhibition of human DLK transfected in HEK293-T-REx cells assessed as decrease in JNK phosphorylation incubated for 5 hrs by HTRF assay; format: cell-based
parameter: pIC50
One number for each entry, as −log10 of the molar value.

Worked cases, answers included:
[[record]]
smiles_input = "CCn1nc(-c2cnc(N)c(OC(F)(F)F)c2)c2ccc([C@H]3COCCN3C)cc21"
assay_result = 6.99

[[record]]
smiles_input = "Nc1ncc(-c2cc(N3C[C@@H]4C[C@H]3CO4)nc(N3CCC(F)(F)C3)n2)cc1OC(F)F"
assay_result = 7.10


**Q:** Name the recorded pIC50 for CCn1nc(-c2cnc(N)c(C(F)(F)F)c2)c2ccn([C@@H]3CCOC[C@@H]3OC3CC3)c(=O)c21 .
**A:** 6.74

====

Please go through the items and note down their pKi.
experiment: Inhibition of GST-tagged DLK (1 to 520 residues)(unknown origin) using MKK4 as substrate preincubated for 60 mins followed by substrate/ATP addition measured after 30 mins by HTRF assay; parameters: species or system Homo sapiens
Numbers only, as −log10 of the molar value.

Worked cases, answers included:
[[record]]
compound = "Nc1ncc(-c2c[nH]c3cccnc23)cc1C(F)(F)F"
assay_result = 6.71

[[record]]
compound = "CCn1nc(-c2cnc(N)c(OC(F)(F)F)c2)c2ccn([C@H]3CC4(CC4)OC[C@H]3OC)c(=O)c21"
assay_result = 8.66

[[record]]
compound = "CCn1nc(-c2cnc(N)c(OC(F)F)c2)c2ccn([C@@H]3CCC(F)(F)C[C@@H]3OC)c(=O)c21"
assay_result = 9.16

[[record]]
compound = "Nc1ncc(-c2cc(N3C[C@@H]4C[C@H]3CO4)nc(N3CCC(F)(F)C3)n2)cc1OC(F)F [GDC-0134]"
assay_result = 8.46

[[record]]
compound = "CO[C@H](C)c1nc(-c2cnc(N)c(C(F)(F)F)c2)c2ccc(C3CCN(C)CC3)cn12"
assay_result = 8.92

[[record]]
compound = "CCn1nc(-c2cnc(N)c(OC(F)(F)F)c2)c2ccn(C3CCN(C4COC4)CC3)c(=O)c21"
assay_result = 8.52

[[record]]
compound = "CCc1nc(-c2cnc(N)c(OC(F)(F)F)c2)c2ccc([C@H]3COCC(=O)N3C)cn12"
assay_result = 9.59

[[record]]
compound = "CCn1nc(-c2cnc(N)c(OC(F)(F)F)c2)c2ccn([C@@H]3CCOC[C@@H]3OC)c(=O)c21"
assay_result = 8.72

[[record]]
compound = "CCc1nc(-c2cnc(N)c(OC(F)(F)F)c2)c2ccc([C@@]3(C)COCCN3C)cn12"
assay_result = 9.33

[[record]]
compound = "CN1CCOC[C@H]1c1ccc2c(-c3cnc(N)c(OC(F)(F)F)c3)nc(C(F)(F)F)n2c1"
assay_result = 8.46


Hi there! I need pKi for each item below, if you can.
1. CCc1nc(-c2cnc(N)c(OC(F)(F)F)c2)c2ccc([C@H]3CC(=O)N(C)C3)cn12
2. CC(C)c1n[nH]c2cnc(-c3cnc(N)c(C(F)(F)F)c3)cc12
3. CN1CCC(c2ccc3c(-c4cnc(N)c(C(F)(F)F)c4)nc(C#N)n3c2)CC1
4. CN1CCC(c2ccc3c(-c4cnc(N)c(C(F)(F)F)c4)nc(C(F)(F)F)n3c2)CC1

**A:**
9.11
7.10
8.32
8.68

Hi there! I need pKi for each item below, if you can.
1. CCn1nc(-c2cnc(N)c(OC(F)(F)F)c2)c2ccn(C3CCOCC3)c(=O)c21
2. Nc1ncc(-c2cc3cn[nH]c3c(C3CC3)n2)cc1C(F)(F)F
3. Nc1ncc(-c2cc3cn[nH]c3cn2)cc1C(F)(F)F

**A:**
1: 8.55; 2: 7.23; 3: 6.38
